Target: cGAS (Homo sapiens, UniProt Q8N884)
Sequence (Q8N884 whole entry): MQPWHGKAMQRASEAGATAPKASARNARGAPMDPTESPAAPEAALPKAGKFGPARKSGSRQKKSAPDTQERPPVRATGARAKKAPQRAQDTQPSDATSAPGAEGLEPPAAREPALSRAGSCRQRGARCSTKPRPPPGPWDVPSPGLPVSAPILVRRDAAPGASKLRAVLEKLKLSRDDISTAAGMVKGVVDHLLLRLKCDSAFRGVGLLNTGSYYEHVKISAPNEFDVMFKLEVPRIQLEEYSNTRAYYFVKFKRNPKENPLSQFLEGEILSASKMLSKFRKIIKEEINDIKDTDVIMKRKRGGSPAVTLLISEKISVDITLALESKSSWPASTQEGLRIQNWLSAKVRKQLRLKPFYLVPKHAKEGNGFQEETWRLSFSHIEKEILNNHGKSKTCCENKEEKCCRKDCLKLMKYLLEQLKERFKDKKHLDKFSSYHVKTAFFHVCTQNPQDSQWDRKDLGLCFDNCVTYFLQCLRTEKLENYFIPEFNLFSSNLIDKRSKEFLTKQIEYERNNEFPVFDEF
Assay: ISD70-driven IP-10 (and IFN-β) production in THP-1 cells, ELISA
Format: cell-based
Design: endogenous in cells; host or cells: THP-1 (undifferentiated)
Details: THP-1; 100 nM ASO overnight, then ISD70 2.5 μg/ml 7-8 h; percentage of ISD70 only
Description: The ability of an oligonucleotide to inhibit cGAS activity can, for example, be analysed by incubating cells which express cGAS with an oligonucleotide, then stimulating said cells with a cGAS agonist (e.g., 70-bp interferon stimulating DNA or ISD70; 45-bp interferon stimulating DNA or ISD45), and analysing the overall cGAS response in the cell population, or analysing the proportion of cells having cGAS-positive activity after a defined period of time. […]
In the oligonucleotide strings, read from the 5' end, every base follows the letter of its sugar. An asterisk marks phosphorothioate; unmarked linkages are phosphodiester. Other units and linkages are bracketed, terminal groups are in braces. A string of capitals states the bases alone. d = 2'-deoxy (DNA); m = 2'-O-methyl
# binarize cGAS-100 nM: averaged IP-10 levels relative to ISD70: threshold 70% inclusive, high side 1 (yes), low side 0 (no)

Reference set (2 entries):
{"columns": ["substance", "class label"],
 "data": [
  ["mA*mU*mU*mU*mC*C*A*C*A*T*G*C*C*C*A*mG*mU*mG*mU*mU (AUUUCCACATGCCCAGUGUU; antisense; sugars from the 5' end m5 d10 m5, all phosphorothioate, methylation of C not given here) [[CDKN2B-AS1]626]", "0 (no)"],
  ["mA*mU*mG*mA*mC*A*T*T*T*C*G*T*G*G*C*mU*mC*mC*mU*mA (mA*mU*mG*mA*mC*dA*dT*dT*dT*dC*dG*dT*dG*dG*dC*mU*mC*mC*mU*mA) [[LINC-PINT]524.1]", "1 (yes)"]
]}

In plain terms: is recorded cGAS-100 nM: averaged IP-10 levels relative to ISD70 at least 70% for mA*mC*mC*mC*mU*T*C*T*C*T*C*T*G*G*T*mC*mC*mC*mA*mU (mA*mC*mC*mC*mU*dT*dC*dT*dC*dT*dC*dT*dG*dG*dT*mC*mC*mC*mA*mU; antisense) [[LINC-PINT]115] ?
1 (yes)
